assay: qHTS RealTime-Glo MT Cell Viability Assay in HepG2 cells - 32 hour (AID 1224877); settings: RealTime-Glo luminescence; series mostly up to 76.8 µM; also: nearly all actives have a fitted effect of over 55% in size
Results filed as inconclusive are left out. The source made the active and inactive calls. Calls follow the shape of the dose curve; as a rule, active = well fitted cell-killing curve with a large enough effect in the repeat runs; inconclusive = weak or mixed curves; inactive = flat fitted curve, though single readings scatter.
Classes used: y for active, n for inactive

COc1ccc(CCC(=O)c2c(O)cc(O[C@@H]3O[C@H](CO)[C@@H](O)[C@H](O)[C@H]3O[C@@H]3O[C@@H](C)[C@H](O)[C@@H](O)[C@H]3O)cc2O)cc1O    n
N#C/C(=C1\SCC(c2ccccc2Cl)S1)n1ccnc1 (stereo unspecified)    n
CCCCC(CC)C(=O)OCCOCCOCCOCCOC(=O)C(CC)CCCC (stereo unspecified)    n
O=C1NCCN1    n
CC[C@H](NC(=O)c1cc(F)ccc1NS(=O)(=O)c1cccc2cccnc12)c1ccccc1    y
COc1ccc(C(=O)c2cccc(O)c2)c(OC)c1    n
C=CC(C)=CCC=C(C)C    n
O=C(NCCCN1CCOCC1)c1ccc(Cl)cc1    n
CO[C@H]1O[C@H](CO)[C@@H](O)[C@H](O)[C@H]1O    n
Cc1cc(S(=O)(=O)O)ccc1N=Nc1c(O)ccc2ccccc12    n
O=C(C(=O)c1ccccc1)c1ccccc1    n

----------
molecular target: Aromatase (Homo sapiens) (UniProt P11511); assay: qHTS assay to identify aromatase inhibitors (AID 743083); details: MCF-7 aro ERE, testosterone-driven ERE luciferase, 24 h; series mostly up to 70.3 µM; also: nearly all actives have a fitted effect of over 55% in size
Sequence (P11511 whole entry, looked up): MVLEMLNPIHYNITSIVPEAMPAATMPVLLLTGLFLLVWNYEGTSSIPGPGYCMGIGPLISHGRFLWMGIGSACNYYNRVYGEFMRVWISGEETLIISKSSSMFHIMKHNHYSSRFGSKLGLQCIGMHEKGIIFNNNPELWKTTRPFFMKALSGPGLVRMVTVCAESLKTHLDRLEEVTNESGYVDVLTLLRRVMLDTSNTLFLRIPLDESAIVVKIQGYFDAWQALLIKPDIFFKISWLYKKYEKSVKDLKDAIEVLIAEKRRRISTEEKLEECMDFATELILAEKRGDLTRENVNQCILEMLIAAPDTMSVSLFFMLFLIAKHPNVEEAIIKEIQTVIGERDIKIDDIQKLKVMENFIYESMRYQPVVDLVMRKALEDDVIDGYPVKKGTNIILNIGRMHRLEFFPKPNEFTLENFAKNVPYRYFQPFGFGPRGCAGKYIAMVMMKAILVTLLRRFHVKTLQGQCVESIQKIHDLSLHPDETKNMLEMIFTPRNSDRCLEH
Results filed as inconclusive are left out. Active and inactive are the calls of the source. The call rests on the fitted dose curve; in most records, active means well fitted inhibition curve with a large enough effect in the repeat runs; inconclusive means weak or mixed curves; inactive means no such curve, though single readings can be large or run the other way.
Classes used: class 1 for active, class 0 for inactive

CCOC(=O)CC(=O)C(=O)OCC    class 0
COC(=O)CC(=O)C(C)(C)C    class 0
CCn1cc(C(=O)O)c(=O)c2cc(F)c(N3CCNCC3)nc21    class 0
CCN(CC)CCNC(=O)c1ccc(NC(C)=O)cc1    class 0
O=C(CCCCCCCCC#CI)Oc1ccccc1    class 0
Cc1nc2ccccc2s1    class 0
O=[N+]([O-])c1cccc(S(=O)(=O)NCCNS(=O)(=O)c2cccc([N+](=O)[O-])c2)c1    class 0
Cc1cc(OI)c(C(C)C)cc1-c1cc(C(C)C)c(OI)cc1C    class 0
OCCSc1ccccc1    class 0
CC1CC(O)CC(C)(C)C1 (stereo not drawn)    class 0
CC(COc1ccc(C(C)(C)C)cc1)OS(=O)OCCCl (stereo not drawn)    class 0
CNC(=O)N(c1ccccc1)c1ccccc1    class 0
CCN(Cc1cccc(S(=O)(=O)O)c1)c1ccc(C(=C2C=CC(=[N+](CC)Cc3cccc(S(=O)(=O)[O-])c3)C=C2)c2ccccc2)cc1    class 0
c1cnc2c(n1)CCCC2    class 0
CCOC(=O)c1ccccc1C    class 0
CCOC(=O)OCC    class 0
CCCC1C(CC)=CC(CC)=CN1c1ccccc1 (stereo not drawn)    class 0
O=C1OCCN1/N=C/c1ccc([N+](=O)[O-])o1    class 1
CCCCN(CCCC)C(=S)SSC(=S)N(CCCC)CCCC    class 0
COc1cc2[nH]c(=O)[nH]c(=O)c2cc1OC    class 0
CCn1nc(C)c2c1C(=O)NCC(c1ccc(O)cc1)=N2    class 0
CCCCN(CCCC)CCCOC(=O)c1ccc(N)cc1    class 0
Fc1ccccc1[C@@H](F)COC1CCC(Nc2ncnc3[nH]ncc23)CC1 (stereo partly drawn)    class 1

Cited source for all entries: PubChem BioAssay (Tox21)
